Recorded values, source paper PMC5365645.

- run description: in vivo
- Parameters: species or system female CD-1 mice
- condition description: female, CD-1, mouse, po, 6.25 mg/kg
readout kind: concentration at 12 h (ng/mL)

{"columns": ["structure smiles string", "readout kind", "value unit", "reported"],
 "data": [
  ["CC(C)[C@@H](C)[C@@]1(C)CC[C@]2(C)[C@H]3CC[C@@H]4[C@@]5(COC[C@@]4(C)[C@@H](OC[C@](C)(N)C(C)(C)C)[C@H](n4ncnc4-c4ccncc4)C5)C3=CC[C@@]2(C)[C@@H]1C(=O)O", "concentration at 12 h", "ng/mL", 370]
]}

* * *

- run description: in vivo
- Design: species or system female CD-1 mice
- condition description: female, CD-1, mouse, po, 12 mg/kg, AUC0–12
readout kind: AUC(0-t) (µg·h/mL)

{"columns": ["structure smiles string", "readout kind", "value unit", "reported"],
 "data": [
  ["CC(C)[C@@H](C)[C@@]1(C)CC[C@]2(C)[C@H]3CC[C@@H]4[C@@]5(COC[C@@]4(C)[C@@H](OC[C@](C)(N)C(C)(C)C)[C@H](n4ncnc4-c4ccncc4)C5)C3=CC[C@@]2(C)[C@@H]1C(=O)O", "AUC(0-t)", "µg·h/mL", 7.58]
]}

* * *

- run description: In vitro metabolic stability in hepatic microsomes
- Format: in vitro ADME, mouse
- condition description: pooled liver microsomes; female mouse liver microsomes
- Method: The metabolic stability of SCY-078 was assessed after incubation with mouse, rat, dog, and human liver microsomes (Table 2) ([10]). […] The half-lives in rodent, dog, and human liver microsomes were ≥125, ≥29, and ≥42 min, respectively. The metabolic stability of SCY-078 was evaluated with male and female mouse, male rat, male and female dog, and mixed-gender human liver microsomes (XenoTech, Lenexa, KS). […]

{"columns": ["structure smiles string", "microsomal CLint at 1 μM"],
 "data": [
  ["CC(C)[C@@H](C)[C@@]1(C)CC[C@]2(C)[C@H]3CC[C@@H]4[C@@]5(COC[C@@]4(C)[C@@H](OC[C@](C)(N)C(C)(C)C)[C@H](n4ncnc4-c4ccncc4)C5)C3=CC[C@@]2(C)[C@@H]1C(=O)O", "< 10 µL/min/mg"]
]}

* * *

- run description: in vivo
- Set-up: species or system Wistar Han rats
- condition description: both sexes, Wistar Han, rat, po, 20 mg/kg
- Procedure: The pharmacokinetics and bioavailability of SCY-078 were evaluated in uninfected mouse, rat, and dog after p.o. and i.v. administration. The in vivo phases of the PK studies were performed at either […] […] The peak concentration (Cmax), the time to maximum concentration (Tmax), the half-life, and the AUC were determined from composite mean plasma concentration-time data for rodents and individual plasma concentration-time data for dogs. […]

{"columns": ["structure smiles string", "Cmax / ng/mL"],
 "data": [
  ["CC(C)[C@@H](C)[C@@]1(C)CC[C@]2(C)[C@H]3CC[C@@H]4[C@@]5(COC[C@@]4(C)[C@@H](OC[C@](C)(N)C(C)(C)C)[C@H](n4ncnc4-c4ccncc4)C5)C3=CC[C@@]2(C)[C@@H]1C(=O)O", 1010]
]}

* * *

- run description: in vivo
- Set-up: species or system female CD-1 mice
- condition description: female, CD-1, mouse, po, 12 mg/kg

{"columns": ["structure smiles string", "AUC(0-inf)"],
 "data": [
  ["CC(C)[C@@H](C)[C@@]1(C)CC[C@]2(C)[C@H]3CC[C@@H]4[C@@]5(COC[C@@]4(C)[C@@H](OC[C@](C)(N)C(C)(C)C)[C@H](n4ncnc4-c4ccncc4)C5)C3=CC[C@@]2(C)[C@@H]1C(=O)O", "28300 ng·h/mL"]
]}
